- TARGET SYSTEM: human CD40 on cells (HEK293 stable transfectants, HEK-Blue CD40 cells, human B cells, monocytic cells, … (human, UniProt P25942 21-277))
- Sequence (P25942 21-277 limits assumed): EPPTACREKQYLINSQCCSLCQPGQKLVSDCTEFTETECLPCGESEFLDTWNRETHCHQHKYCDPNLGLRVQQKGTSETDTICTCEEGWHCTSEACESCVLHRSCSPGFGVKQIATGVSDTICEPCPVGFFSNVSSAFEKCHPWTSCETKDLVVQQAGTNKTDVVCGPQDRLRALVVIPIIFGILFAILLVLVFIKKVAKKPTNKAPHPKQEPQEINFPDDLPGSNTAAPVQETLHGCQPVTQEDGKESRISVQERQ
- METHOD SUMMARY: cell-based or functional assay
OBSERVED PROPERTY: Maximal activation (OD655)
Quick reminder: number only, in OD655, skip the unit.

>  <BINDER>
huAb6-3 (antibody, human IgG1, V domains shown, human IgG1, kappa) VH: EVQLVQSGAEVKKPGSSVKVSCKASGYTFTSYWMHWVRQAPGQGLEWIGNIDPSNGETHYAQKFQGRVTITVDKSTSTAYMELSSLRSEDTAVYYCARERIYYSGSTYDGYFDVWGQGTTVTVSS VL: DIQLTQSPSFLSASVGDRVTITCSASSSLSYMHWYQQKPGKSPKRWIYDTSKLASGVPSRFSGSGSGTEYTLTISSLQPEDFATYYCQQWSSNPWTFGGGTKVEIK

>  <MEASURE UNIT>
OD655

>  <Maximal activation (OD655)>
0.32

$$$$
>  <BINDER>
huAb9-1 (antibody, human IgG1, V domains shown, human IgG1, kappa) VH: EVQLQESGPGLVKPSETLSLTCTVSGYSITSNYYWNWIRQPPGKGLEWMGYIRYDGSNNYNPSLKNRITISRDTSKNQFSLKLSSVTAADTAVYYCARLDYWGQGTTVTVSS VL: DAVMTQTPLSLSVTPGQPASISCRSSQSLENTNGNTFLNWFLQKPGQSPQLLIYRVSNRFSGVPDRFSGSGSGTDFTLKISRVEAEDVGVYFCLQVTHVPFTFGQGTKLEIK

>  <MEASURE UNIT>
OD655

>  <Maximal activation (OD655)>
0.26

$$$$

Per the record, huAb9-3 (antibody, human IgG1, V domains shown, human IgG1, kappa) VH: EVQLQESGPGLVKPSETLSLTCTVSGYSISSNYYWNWIRQPPGKGLEWMGYIRYDGSNNYNPSLKSRVTISRDTSKNQFSLKLSSVTAADTAVYYCARLDYWGQGTTVTVSS VL: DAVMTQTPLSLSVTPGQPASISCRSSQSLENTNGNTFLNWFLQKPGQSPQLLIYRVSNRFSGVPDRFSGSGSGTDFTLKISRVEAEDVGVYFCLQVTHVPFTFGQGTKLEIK has Maximal activation (OD655) of 0.27
